# test.target: N-formyl peptide receptor 2 (Homo sapiens, UniProt P25090)
# Sequence (P25090 whole entry): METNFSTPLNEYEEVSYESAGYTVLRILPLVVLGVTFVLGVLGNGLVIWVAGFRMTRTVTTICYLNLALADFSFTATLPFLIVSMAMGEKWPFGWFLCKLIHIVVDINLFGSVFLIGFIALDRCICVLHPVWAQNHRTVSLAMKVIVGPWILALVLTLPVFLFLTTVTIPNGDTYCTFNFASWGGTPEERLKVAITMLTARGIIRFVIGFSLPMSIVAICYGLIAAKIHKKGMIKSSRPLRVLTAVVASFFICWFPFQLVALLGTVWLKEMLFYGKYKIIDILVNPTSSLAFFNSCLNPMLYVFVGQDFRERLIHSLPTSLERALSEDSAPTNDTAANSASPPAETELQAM
# procedure.text: Agonist activity at FPRL1 (unknown origin) expressed in CHO-K1 cells assessed as stimulation of beta-arrestin recruitment incubated for 150 mins by beta-galactosidase based PathHunter assay
# Assay type: functional, cell-based
# run.parameters: read-out: EC50
pEC50: −log10 of the molar value.
assay.endpoint: pEC50

A selection of reference data follows.
# compound, obs.value
rows = [
    ("O=C(Nc1ccc(Br)cc1)NC1CCN(c2ccc(F)cc2)C1=O (stereo not given)", 6.29),
    ("CC(C)(C)OC(=O)N1CC(N2CCC(NC(=O)Nc3ccc(Br)cc3)C2=O)C1 (stereo not given)", 5.63),
    ("O=C(Nc1ccc(Br)cc1)NC1CCN(CC2CCN(Cc3ccccc3)CC2)C1=O (stereo not given)", 5.65),
]

a: O=C(Nc1ccc(Br)cc1)NC1CCN(CC2CCNCC2)C1=O (stereo not given)
b: CC(C)(C)OC(=O)N1CCC[C@H](N2CCC(NC(=O)Nc3ccc(Br)cc3)C2=O)C1 (stereo in doubt; 20)
Between the entries labeled a and b , whose measured pEC50 is lower? Reply with the label of the item you choose.
a
(a: 5.48, b: 6.26)

###

# test.target: N-formyl peptide receptor 2 (Homo sapiens) (UniProt P25090)
# procedure.text: Agonist activity at FPRL1 (unknown origin) expressed in CHO-K1 cells assessed as stimulation of beta-arrestin recruitment […] incubated for 150 mins by beta-galactosidase based PathHunter assay
# Type: functional, cell-based
# run.parameters: filed as agonist
assay.endpoint: Emax (%)

# molecule, obs.value
data = [
    ("CC(C)(C)OC(=O)N1CCC(CN2CCC(NC(=O)Nc3ccc(Br)cc3)C2=O)CC1 (stereo not drawn)", 92),
    ("CC(C)(C)OC(=O)N1CCC(N2CCC(NC(=O)Nc3ccc(Br)cc3)C2=O)CC1 (stereo not drawn)", 93),
    ("CC(C)(C)OC(=O)N1CCC[C@H](N2CCC(NC(=O)Nc3ccc(Br)cc3)C2=O)C1 (stereo in doubt; 20)", 86),
    ("CC(C)(C)OC(=O)N1CCC[C@H](N2CCC(NC(=O)Nc3ccc(Br)cc3)C2=O)C1 (stereo in doubt; 19)", 89),
    ("O=C(Nc1ccc(Br)cc1)NC1CCN(C2CCN(c3ncccn3)CC2)C1=O (stereo not drawn)", 96),
    ("O=C(Nc1ccc(Br)cc1)NC1CCN(c2cnn(-c3ccncc3)c2)C1=O (stereo not drawn)", 103),
    ("O=C(Nc1ccc(Br)cc1)NC1CCN(C2CCN(Cc3ccccc3)C2)C1=O (stereo in doubt; 17)", 100),
    ("O=C(Nc1ccc(Br)cc1)NC1CCN(C2CCN(Cc3ccccc3)C2)C1=O (stereo in doubt; 18)", 99),
]

###

# test.target: N-formyl peptide receptor 2 (Homo sapiens, UniProt P25090)
# procedure.text: Agonist activity at human FPR2 expressed in HEK293-A cells assessed as ERK phosphorylation level incubated for 5 mins by ELISA assay
# Assay type: functional, cell-based
pEC50: −log10 of the molar value.
assay.endpoint: pEC50

# compound, test.target, obs.value
records = [
    ("Cc1nn(C)cc1N1CCC(NC(=O)Nc2ccc(Br)cc2)C1=O (configuration not stated)", "N-formyl peptide receptor 2 (Homo sapiens, UniProt P25090)", 5.31),
    ("O=C(Nc1ccc(Br)cc1)NC1CCN(c2ccccc2)C1=O (configuration not stated)", "N-formyl peptide receptor 2 (Homo sapiens, UniProt P25090)", 5.13),
]
